Values compiled from ChEMBL document CHEMBL1201862.

Biological target: Aminopeptidase N (Plasmodium falciparum FcB1/Columbia)
Sequence (O96935 whole entry): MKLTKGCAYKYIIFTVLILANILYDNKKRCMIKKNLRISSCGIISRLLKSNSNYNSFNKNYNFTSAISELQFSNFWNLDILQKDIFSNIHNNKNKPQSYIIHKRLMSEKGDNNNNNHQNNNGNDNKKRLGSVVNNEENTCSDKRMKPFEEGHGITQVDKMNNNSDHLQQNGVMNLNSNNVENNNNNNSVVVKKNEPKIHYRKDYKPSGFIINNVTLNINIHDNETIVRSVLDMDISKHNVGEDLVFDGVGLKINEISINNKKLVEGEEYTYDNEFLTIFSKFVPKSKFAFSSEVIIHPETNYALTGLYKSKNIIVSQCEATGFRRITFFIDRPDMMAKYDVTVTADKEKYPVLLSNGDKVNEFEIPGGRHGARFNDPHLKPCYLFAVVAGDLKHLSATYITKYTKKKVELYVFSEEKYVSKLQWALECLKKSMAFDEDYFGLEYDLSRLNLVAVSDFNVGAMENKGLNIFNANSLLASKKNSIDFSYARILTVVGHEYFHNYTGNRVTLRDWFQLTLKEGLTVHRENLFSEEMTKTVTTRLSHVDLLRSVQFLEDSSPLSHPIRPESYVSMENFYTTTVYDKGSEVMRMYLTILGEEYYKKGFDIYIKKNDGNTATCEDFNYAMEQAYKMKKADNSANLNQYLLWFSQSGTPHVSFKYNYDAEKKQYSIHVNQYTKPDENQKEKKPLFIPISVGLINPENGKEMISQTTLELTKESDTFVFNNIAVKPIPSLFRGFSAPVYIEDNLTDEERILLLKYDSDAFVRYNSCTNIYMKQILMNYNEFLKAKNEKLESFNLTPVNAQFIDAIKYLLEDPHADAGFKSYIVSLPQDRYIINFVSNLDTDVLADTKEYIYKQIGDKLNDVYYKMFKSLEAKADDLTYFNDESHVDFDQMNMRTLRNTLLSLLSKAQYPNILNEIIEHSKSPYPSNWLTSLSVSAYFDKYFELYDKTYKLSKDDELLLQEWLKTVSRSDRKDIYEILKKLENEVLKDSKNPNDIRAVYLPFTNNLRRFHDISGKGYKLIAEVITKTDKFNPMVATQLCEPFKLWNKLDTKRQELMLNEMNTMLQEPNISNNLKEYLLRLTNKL
Assay: malaria alanyl aminopeptidase activity blockers – biochemical, fluorogenic H-Leu-NHMec substrate, 1536-well (AID 1445)
Parameters: species or system Plasmodium falciparum 3D7, 3D7
Active and inactive are the calls of the source. The rule behind the calls is not given here.
Recorded IC50 values for a group of molecules are listed next.

Here's what some known entries look like.
molecule | assay.metric | result
CC1=NN(c2ccccc2)C(=O)C1/C=N/c1ccccc1O (stereo not drawn) | IC50 | 12.8 µM (active)
O=C(N/N=C/c1cc(Br)ccc1O)C(c1ccncc1)N1CCOCC1 (stereo not drawn) | IC50 | 12 µM (active)
O=C(NCc1cccs1)C1CCN(S(=O)(=O)c2ccc(Cl)cc2)CC1 | IC50 | 89.3 µM (active)
O=C1/C(=C/c2nc3ccccc3[nH]2)SC(=S)N1NS(=O)(=O)c1ccccc1 | IC50 | 23.7 µM (active)
O=C(NCc1cccc(F)c1)C1CCN(C(=O)c2sccc2-n2cccc2)CC1 | IC50 | 100 µM (active)

For the molecule O=C(Cc1cc(=O)oc2cc(O)ccc12)NCC1CCC(C(=O)O)CC1 (stereo not drawn) , give its reported IC50.
65.9 µM (active)

For the molecule Cc1[nH]n(-c2ccccc2)c(=O)c1N=Nc1ccccc1O , give its reported IC50.
< 1 µM (active)

For the molecule Cc1cc(=O)oc2c(CN3CCN(C)CC3)c(O)c(Cl)cc12 , give its reported IC50.
33.6 µM (active)
